Source: patent US11566007B2

- system: NRAS WT (Homo sapiens (Human), UniProt P01111+P62937)
- Sequence (P01111 whole entry, one chain of several): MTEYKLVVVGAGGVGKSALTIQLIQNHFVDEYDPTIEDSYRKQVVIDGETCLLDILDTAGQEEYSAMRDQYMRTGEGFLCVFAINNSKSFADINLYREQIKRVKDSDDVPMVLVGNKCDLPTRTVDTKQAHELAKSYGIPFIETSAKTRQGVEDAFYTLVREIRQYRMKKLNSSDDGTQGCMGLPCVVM
- test: Ras-Raf (BRAF RBD) disruption / FRET / MOA assay, NRAS WT
- Format: biochemical
- condition summary: read-out: IC50* NRAS WT FRET data
measured attribute: IC50

compound	IC50
CO[C@@H](C)c1ncc(N2CCN(C)CC2)cc1-c1c2c3cc(ccc3n1CC(F)(F)F)-c1cccc(c1)C[C@H](NC(=O)[C@H](C(C)C)N(C)C(=O)C1(F)CCN(C(=O)C#CC(C)(C)N(C)C)CC1)C(=O)N1CCC[C@H](N1)C(=O)OCC(C)(C)C2 (atropisomer, axis not shown)	10 to 100 nM
C=CC(=O)N1CCO[C@@H]2CCN(C(=O)N(C)[C@H](C(=O)N[C@H]3Cc4nc(cs4)-c4ccc5c(c4)c(c(-c4cccnc4[C@H](C)OC)n5CC)CC(C)(C)COC(=O)[C@@H]4CCCN(N4)C3=O)C(C)C)C[C@@H]21 (atropisomer, axis not shown)	100 to 1000 nM
CCn1c(-c2cccnc2[C@H](C)OC)c2c3cc(ccc31)-c1cccc(c1)C[C@H](NC(=O)[C@H](C(C)C)N1CO[C@]3(CCN(C(=O)C#CC(C)(C)N4CCC4)C3)C1=O)C(=O)N1CCC[C@H](N1)C(=O)OCC(C)(C)C2 (atropisomer, axis not shown)	100 to 1000 nM

For the compound shown here, C=CC(=O)N1CCO[C@@H]2CCN(C(=O)N(C)[C@H](C(=O)N[C@H]3Cc4nc(cs4)-c4ccc5c(c4)c(c(-c4cccnc4[C@H](C)OC)n5CC)CC(C)(C)COC(=O)[C@@H]4CCCN(N4)C3=O)C(C)C)CC21 (stereo partly shown) , give the reported IC50. 10 to 100 nM

###

Items are presented alongside their recorded IC50.
- system: KRAS G13D (Homo sapiens (Human), UniProt P01116+P62937, G13D)
- Sequence (P01116-2 other isoform, or with tags, fused parts or gaps G13D): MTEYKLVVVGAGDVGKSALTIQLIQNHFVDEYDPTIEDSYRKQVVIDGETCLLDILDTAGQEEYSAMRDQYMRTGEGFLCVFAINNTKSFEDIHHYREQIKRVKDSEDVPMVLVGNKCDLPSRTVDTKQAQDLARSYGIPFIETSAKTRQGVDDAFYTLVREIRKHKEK
- Sequence (P62937 whole entry): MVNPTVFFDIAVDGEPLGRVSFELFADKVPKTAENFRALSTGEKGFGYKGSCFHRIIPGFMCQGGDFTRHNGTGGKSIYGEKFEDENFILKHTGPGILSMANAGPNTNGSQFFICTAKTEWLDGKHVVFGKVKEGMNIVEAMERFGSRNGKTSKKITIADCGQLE
- test: Ras-Raf (BRAF RBD) disruption / FRET / MOA assay, KRAS G13D
- Assay type: biochemical
- condition summary: read-out: IC50* KRAS G13D FRET data
- Procedure: The purpose of this biochemical assay is to measure the ability of test compounds to facilitate ternary complex formation between a nucleotide-loaded Ras isoform and cyclophilin A; the resulting ternary complex disrupts binding to a BRAF^RBD construct, inhibiting Ras signaling through a RAF effector. Compound is present in plate wells as a 10-point 3-fold dilution series starting at a final concentration of 30 μM. […]

Example compounds with recorded IC50:
compound	IC50
CCn1c(-c2cccnc2[C@H](C)OC)c2c3cc(ccc31)-c1csc(n1)C[C@H](NC(=O)C[C@H](C)OC1CN(C(=O)C#CC(C)(C)N(C)C)C1)C(=O)N1CCC[C@H](N1)C(=O)OCC(C)(C)C2 (atropisomer, axis not shown)	1000 to 10000 nM
C=CC(=O)N1CC[C@H](C(=O)N(C)[C@H](C(=O)N[C@H]2Cc3cc(O)cc(c3)-c3ccc4c(c3)c(c(-c3cnn5c3[C@@H](OC)CCC5)n4CC)CC(C)(C)COC(=O)[C@@H]3CCCN(N3)C2=O)C(C)C)C1	10 to 100 nM

What value of measured IC50 is listed for CCn1c(-c2cccnc2[C@H](C)OC)c2c3cc(ccc31)-c1cccc(c1)C[C@H](NC(=O)[C@H](C(C)C)N1CCC3(CN(C(=O)C#CC(C)(C)N(C)C)C3)C1=O)C(=O)N1CCC[C@H](N1)C(=O)OCC(C)(C)C2 (atropisomer, axis not shown) ? > 10000 nM

###

- system: NRAS G12C (Homo sapiens (Human), UniProt P01111+P62937, G12C)
- Sequence (P01111 whole entry G12C, one chain of several): as the sequence (P01111 whole entry, one chain of several) above, with G12C counted along it
- test: Ras-Raf (BRAF RBD) disruption / FRET / MOA assay, NRAS G12C
- Assay type: biochemical
- condition summary: read-out: IC50* NRAS G12C FRET data
measured attribute: IC50

These solved cases illustrate the format of a correct answer.
compound	IC50
C=CC(=O)N1CCC2(CC1)CN(C(=O)N(C)[C@H](C(=O)N[C@H]1Cc3nc(cs3)-c3ccc4c(c3)c(c(-c3cccnc3[C@H](C)OC)n4CC)CC(C)(C)COC(=O)[C@@H]3CCCN(N3)C1=O)C(C)C)C2 (atropisomer, axis not shown) [Example A702]	0.1 to 1 µM
CCn1c(-c2cccnc2[C@H](C)OC)c2c3cc(ccc31)-c1cccc(c1)C[C@H](NC(=O)[C@H](C(C)C)N(C)C(=O)[C@H]1CCN(C(=O)C#CC3(N(C)C)CCOCC3)C1)C(=O)N1CCC[C@H](N1)C(=O)OCC(C)(C)C2 (atropisomer, axis not shown) [Example A532]	0.01 to 0.1 µM
CO[C@@H](C)c1ncccc1-c1c2c3cc(ccc3n1CC(F)(F)F)N1CCO[C@@H](C[C@H](NC(=O)[C@H](C(C)C)N3CC[C@@]4(CCN(C(=O)C#CC(C)(C)N(C)C)C4)C3=O)C(=O)N3CCC[C@H](N3)C(=O)OCC(C)(C)C2)C1 (atropisomer, axis not shown) [Example A628]	< 0.01 µM
C=C(OC)C(=O)N1CC(N(C)C(=O)N(C)[C@H](C(=O)N[C@H]2Cc3nc(cs3)-c3ccc4c(c3)c(c(-c3cccnc3[C@H](C)OC)n4CC)CC(C)(C)COC(=O)[C@@H]3CCCN(N3)C2=O)C(C)C)C1 (atropisomer, axis not shown) [Example A713]	0.1 to 1 µM
C=CC(=O)N1CC[C@](C#N)(C(=O)N(C)[C@H](C(=O)N[C@H]2Cc3cccc(c3)-c3ccc4c(c3)c(c(-c3cccnc3[C@H](C)OC)n4CC)CC(C)(C)COC(=O)[C@@H]3CCCN(N3)C2=O)C(C)C)C1 (atropisomer, axis not shown) [Example A443]	0.01 to 0.1 µM

What does the data say about its IC50? Entry: C=CC(=O)N1CC2(C1)CN(C(=O)N(C)[C@H](C(=O)N[C@H]1Cc3nc(cs3)-c3ccc4c(c3)c(c(-c3cccnc3[C@H](C)OC)n4CC)CC(C)(C)COC(=O)[C@@H]3CCCN(N3)C1=O)C(C)C)C2 (atropisomer, axis not shown) [Example A419] 0.01 to 0.1 µM

For C=CC(=O)N(C)[C@@H]1C[C@H](C)N(C(=O)N(C)[C@H](C(=O)N[C@H]2Cc3nc(cs3)-c3ccc4c(c3)c(c(-c3cccnc3[C@H](C)OC)n4CC)CC(C)(C)COC(=O)[C@@H]3CCCN(N3)C2=O)C(C)C)C1 (atropisomer, axis not shown) [Example A633] , what is its reported IC50? 0.01 to 0.1 µM

Would you kindly share the measured IC50 for CC#CC(=O)N1CC[C@H](C(=O)N(C)[C@H](C(=O)N[C@H]2Cc3nc(cs3)-c3ccc4c(c3)c(c(-c3cccnc3[C@H](C)OC)n4C(C)=O)CC(C)(C)COC(=O)[C@@H]3CCCN(N3)C2=O)C(C)C)C1 [Example A293] ? > 10 µM

I would be grateful if you could share the reported IC50 for C=CC(=O)N1CC[C@H](C(=O)N(C)[C@H](C(=O)N[C@H]2Cc3csc(n3)-c3ccc4c(c3)c(c(-c3cccnc3COC)n4CC)CC(C)(C)COC(=O)[C@@H]3CCCN(N3)C2=O)C(C)C)C1 [Example A118] . 0.1 to 1 µM

What measured IC50 goes with CCn1c(-c2cccnc2[C@H](C)OC)c2c3cc(ccc31)-c1csc(n1)C[C@H](NC(=O)[C@H](C(C)C)N(C)C(=O)N1CCC3(CC1)CN(C(=O)/C=C/CN1CCOCC1)C3)C(=O)N1CCC[C@H](N1)C(=O)OCC(C)(C)C2 (atropisomer, axis not shown) [Example A669] ? 0.01 to 0.1 µM

###

Below, each entry is listed with its recorded IC50.
- system: KRAS G12S (Homo sapiens (Human), UniProt P01116+P62937, G12S)
- Sequence (P01116-2 other isoform, or with tags, fused parts or gaps G12S, one chain of several): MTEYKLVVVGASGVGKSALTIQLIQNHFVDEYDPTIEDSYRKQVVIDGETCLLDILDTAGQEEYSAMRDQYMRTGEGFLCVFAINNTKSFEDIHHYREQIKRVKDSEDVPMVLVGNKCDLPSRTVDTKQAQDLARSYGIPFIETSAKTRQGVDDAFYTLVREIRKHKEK
- test: Ras-Raf (BRAF RBD) disruption / FRET / MOA assay, KRAS G12S
- Assay type: biochemical
- condition summary: Ras-Raf disruption/FRET/MOA assay; class symbols; read-out: KRAS G12S FRET data IC50

molecule	IC50
CC#CC(=O)N1CC[C@H](C(=O)N(C)[C@H](C(=O)N[C@H]2Cc3cccc(c3)-c3ccc4c(c3)c(c(-c3cccnc3[C@H](C)OC)n4CC)CC(C)(C)COC(=O)[C@@H]3CCCN(N3)C2=O)C2CCCC2)C1 (atropisomer, axis not shown) [Example A310]	1 to 10 µM

With those in mind, consider the next molecule.
Report IC50 for C=CC(=O)NCCN(C)C(=O)N(C)[C@H](C(=O)N[C@H]1Cc2nc(cs2)-c2ccc3c(c2)c(c(-c2cccnc2[C@H](C)OC)n3CC)CC(C)(C)COC(=O)[C@@H]2CCCN(N2)C1=O)C(C)C (atropisomer, axis not shown) [Example A438] tested on KRAS G12S (Homo sapiens (Human), UniProt P01116+P62937, G12S). 0.1 to 1 µM
